tested on: JURKAT; assay: selective drug sensitivity score (sDSS, relative to normal bone marrow) (sDSS (score)); higher = more potent and effective on the cell line relative to normal bone marrow cells; settings: 72 h;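 also: ALL cell lines in 384-well plates, five doses spanning 10,000-fold, each plate scaled between vehicle and 100 µmol/L benzalkonium chloride controls, sDSS an adapted area-under-curve metric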
Values of selective drug sensitivity score greater than or equal to 0.5 map to rule met; values below map to rule not met.

Use the examples below as a reference point.
{"compound": "O=C(NC[C@H](O)CN1CCc2ccccc2C1)c1cc(NC2COC2)ncn1 (top concentration 10000 nM)", "label": "rule not met"}
{"compound": "Cc1ccc(NC(=O)c2ccc(CN3CCN(C)CC3)cc2)cc1Nc1nc(-c2cccnc2)cs1 [Masitinib] (top concentration 10000 nM)", "label": "rule met"}
{"compound": "COc1cc2nccc(Oc3ccc(NC(=O)C4(C(=O)Nc5ccc(F)cc5)CC4)cc3)c2cc1OC [Cabozantinib] (top concentration 1000 nM)", "label": "rule not met"}
{"compound": "COc1cc2nccc(Oc3ccc(NC(=O)NC4CC4)c(Cl)c3)c2cc1C(N)=O [Lenvatinib] (top concentration 2500 nM)", "label": "rule not met"}
{"compound": "COc1ccc(-c2nc(N3CCOCC3)c3sc(CN(C)c4ncc(C(=O)NO)cn4)cc3n2)cn1 [Fimepinostat (CUDC-907)] (top concentration 10000 nM)", "label": "rule met"}
{"compound": "CC#CC(=O)N1CC[C@@H](n2c(=O)n(-c3ccc(Oc4ccccc4)cc3)c3c(N)ncnc32)C1 [Tirabrutinib] (top concentration 1000 nM)", "label": "rule not met"}
{"compound": "COc1cc(OC)cc(N(CCNC(C)C)c2ccc3ncc(-c4cnn(C)c4)nc3c2)c1 [Erdafitinib] (top concentration 1000 nM)", "label": "rule not met"}
{"compound": "O=C(CCNC(=O)c1ccc(OC(F)(F)F)cc1)N[C@@H]1CCCc2ccccc21 [ML390] (top concentration 50000 nM)", "label": "rule met"}
{"compound": "CC(=O)c1cnc2ccc(-c3cc(Cl)c(O)c(Cl)c3)nc2c1N[C@H]1CC[C@H](CN(C)C)CC1 [OTS167] (top concentration 1000 nM)", "label": "rule not met"}
{"compound": "CCS(=O)(=O)c1cccc(-c2cc(C(=O)NC3CCN(C)CC3)c(C)c3[nH]c4ncc(C)cc4c23)c1 [TAK-901] (top concentration 1000 nM)", "label": "rule met"}

Now examine the next entry.
Problem: Is selective drug sensitivity score for Cc1cc(Nc2cc(N3CCN(C)CC3)nc(Sc3ccc(NC(=O)C4CC4)cc3)n2)n[nH]1 [Tozasertib] (top concentration 10000 nM) at or above 0.5?
Solution: rule met

---

system: KOPN-8; test: selective drug sensitivity score (sDSS, relative to normal bone marrow) (sDSS (score)); higher = more potent and effective on the cell line relative to normal bone marrow cells; settings: 72 h
Classes based on selective drug sensitivity score: b0 (below 3), b1 (3 to below 7), b2 (7 or more)

Example cases with answers are listed next.
{"compound": "CCOC(=O)CCNc1cc(N2CCc3ccccc3CC2)nc(-c2ccccn2)n1 [GSK-J4] (top concentration 100000 nM)", "test_system": "KOPN-8", "label": "b0"}
{"compound": "CO[C@@H](C)Cn1c(=O)n(C)c2cnc3ccc(-c4cncc(C(C)(C)O)c4)cc3c21 (top concentration 2500 nM)", "test_system": "KOPN-8", "label": "b2"}
{"compound": "COc1c(OCCCN2CCOCC2)ccc2c1N=C(NC(=O)c1cnc(N)nc1)N1CCN=C21 [Copanlisib] (top concentration 1000 nM)", "test_system": "KOPN-8", "label": "b1"}

Problem: Category of CC[C@@H]1C(=O)N(C)c2cnc(Nc3ccc(C(=O)NC4CCN(C)CC4)cc3OC)nc2N1C1CCCC1 [BI-2536] (top concentration 1000 nM) , please.
Solution: b2

Problem: Lab note: sort Cc1c(N)nc([C@H](CC(N)=O)NC[C@H](N)C(N)=O)nc1C(=O)N[C@H](C(=O)N[C@H](C)[C@@H](O)[C@H](C)C(=O)N[C@H](C(=O)NCCc1nc(-c2nc(C(=O)NCCC[S+](C)C)cs2)cs1)[C@@H](C)O)[C@@H](O[C@@H]1O[C@@H](CO)[C@@H](O)[C@H](O)[C@@H]1O[C@H]1O[C@H](CO)[C@@H](O)[C@H](OC(N)=O)[C@@H]1O)c1c[nH]cn1 [Bleomycin] (top concentration 10000 nM) into the matching selective drug sensitivity score band.
Solution: b2

Problem: Field: class (selective drug sensitivity score) — entry: O=c1[nH]c(=O)n([C@H]2C[C@H](O)[C@@H](CO)O2)cc1F [Floxuridine] (top concentration 10000 nM)
Solution: b2

---

test system: KASUMI-9; experiment: selective drug sensitivity score (sDSS, relative to normal bone marrow) (sDSS (score)); higher = more potent and effective on the cell line relative to normal bone marrow cells; settings: 72 h
Just so you know, the groups by selective drug sensitivity score go like this: band A (below 0), band B (0 to below 4), band C (4 or more)

Solved cases (5 shown):
{"compound": "COC(=O)C[C@](O)(CCCC(C)(C)O)C(=O)O[C@@H]1C(OC)=C[C@]23CCCN2CCc2cc4c(cc2[C@H]13)OCO4 [Omacetaxine] (top concentration 10000 nM)", "label": "band B"}
{"compound": "NS(=O)(=O)NCCNc1nonc1/C(=N/O)Nc1ccc(F)c(Br)c1 [Epacadostat] (top concentration 10000 nM)", "label": "band B"}
{"compound": "O=C(NOC[C@H](O)CO)c1ccc(F)c(F)c1Nc1ccc(I)cc1F (top concentration 1000 nM)", "label": "band C"}
{"compound": "Cc1cnc(Nc2ccc(OCCN3CCCC3)cc2)nc1Nc1cccc(S(=O)(=O)NC(C)(C)C)c1 [Fedratinib] (top concentration 10000 nM)", "label": "band A"}
{"compound": "CC(=O)Nc1ccc(C(=O)Nc2ccccc2N)cc1 [Tacedinaline] (top concentration 1000 nM)", "label": "band C"}

Problem: Which class holds CCC/C=C/C=C/C(=O)O[C@H]1/C(=C/C(=O)OC)C[C@H]2C[C@H]([C@@H](C)O)OC(=O)C[C@H](O)C[C@@H]3C[C@H](OC(C)=O)C(C)(C)[C@](O)(C[C@@H]4C/C(=C/C(=O)OC)C[C@H](/C=C/C(C)(C)[C@]1(O)O2)O4)O3 [Bryostatin_1] (top concentration 100 nM) ?
Solution: band C

Problem: In plain terms, what class is COCC1(CO)C(=O)C2CCN1CC2 (centres undefined) [APR-246] (top concentration 10000 nM) ?
Solution: band A

Problem: Which band does S=C(NCc1ccc2c(c1)OCO2)N1CCN(c2ncnc3c2oc2ccccc23)CC1 [Amuvatinib] (top concentration 10000 nM) fall in?
Solution: band B

Problem: Please let me know in which category the item CNC(=O)c1ccccc1Nc1cc(Nc2ccc(N3CCOCC3)cc2OC)ncc1C(F)(F)F [VS-4718] (top concentration 10000 nM) belongs.
Solution: band B

Problem: Please indicate the class for CCCCCOC(=O)Nc1nc(=O)n([C@@H]2O[C@H](C)[C@@H](O)[C@H]2O)cc1F [Capecitabine] (top concentration 10000 nM) based on its selective drug sensitivity score.
Solution: band A

---

system: HAL-01; experiment: selective drug sensitivity score (sDSS, relative to normal bone marrow) (sDSS (score)); higher = more potent and effective on the cell line relative to normal bone marrow cells; conditions: 72 h
readout_type: selective drug sensitivity score
Give the value as a plain number.

These recorded examples may help you get a feel for the data.
{"molecule": "CS(=O)(=O)c1ccc(-c2cnc(N)c(C(=O)Nc3ccccc3)n2)cc1 [VE-821] (top concentration 10000 nM)", "test_system": "HAL-01", "selective drug sensitivity score": 4.54}
{"molecule": "CO[C@H]1C(=O)[C@]2(C)[C@@H](OC)C[C@H]3OC[C@@]3(OC(C)=O)[C@H]2[C@H](OC(=O)c2ccccc2)[C@]2(O)C[C@H](OC(=O)[C@H](O)[C@@H](NC(=O)OC(C)(C)C)c3ccccc3)C(C)=C1C2(C)C [Cabazitaxel] (top concentration 1000 nM)", "test_system": "HAL-01", "selective drug sensitivity score": 11.7}
{"molecule": "CCCc1cc(C)[nH]c(=O)c1CNC(=O)c1cc(-c2ccnc(N3CCN(C)CC3)c2)cc2c1cnn2C(C)C [GSK343] (top concentration 1000 nM)", "test_system": "HAL-01", "selective drug sensitivity score": 0}
{"molecule": "NCCNc1ccc(NCCN)c2c1C(=O)c1ccncc1C2=O [Pixantrone] (top concentration 10000 nM)", "test_system": "HAL-01", "selective drug sensitivity score": -1.36}

Problem: Form entry - test system: HAL-01; read-out: selective drug sensitivity score; molecule: N#Cc1ccc2[nH]c(O)c(-c3ccc(CN4CCOCC4)cn3)c2c1 [AZD-1080] (top concentration 10000 nM)
Solution: -0.02

---

system: KOPN-8; test: selective drug sensitivity score (sDSS, relative to normal bone marrow) (sDSS (score)); higher = more potent and effective on the cell line relative to normal bone marrow cells; conditions: 72 h
readout_type: selective drug sensitivity score

Use these answered entries as a reference point.
{"compound": "O=C(O)c1ccc(O)c2ncccc12 [IOX-1] (top concentration 100000 nM)", "test_system": "KOPN-8", "selective drug sensitivity score": 2.84}
{"compound": "C[C@@H](Oc1cc(-n2cnc3ccc(CN4CCN(C)CC4)cc32)sc1C(N)=O)c1ccccc1C(F)(F)F (top concentration 10000 nM)", "test_system": "KOPN-8", "selective drug sensitivity score": 19.9}
{"compound": "O=C(NC[C@H](O)CN1CCc2ccccc2C1)c1cc(NC2COC2)ncn1 (top concentration 10000 nM)", "test_system": "KOPN-8", "selective drug sensitivity score": -0.06}
{"compound": "CCC/C=C/C=C/C(=O)O[C@H]1/C(=C/C(=O)OC)C[C@H]2C[C@H]([C@@H](C)O)OC(=O)C[C@H](O)C[C@@H]3C[C@H](OC(C)=O)C(C)(C)[C@](O)(C[C@@H]4C/C(=C/C(=O)OC)C[C@H](/C=C/C(C)(C)[C@]1(O)O2)O4)O3 [Bryostatin_1] (top concentration 100 nM)", "test_system": "KOPN-8", "selective drug sensitivity score": 26.9}
{"compound": "S=C(NCc1ccc2c(c1)OCO2)N1CCN(c2ncnc3c2oc2ccccc23)CC1 [Amuvatinib] (top concentration 10000 nM)", "test_system": "KOPN-8", "selective drug sensitivity score": 8.76}

Problem: Any idea what its selective drug sensitivity score is? The compound is Cc1cccc(-c2[nH]c(CNc3ccccc3F)nc2-c2ccc3ncnn3c2)n1 [Vactosertib (TEW-7197)] (top concentration 2500 nM)
Solution: -0.5
